TARGET OR TEST SYSTEM: T1, recombinant Ovr110-hFc encoded by Ovr110 Construct 2 (human)
T1 construct: Captured on plates by goat anti-human IgG Fc; also called Ovr110-hFc (with TM)
T1 chain: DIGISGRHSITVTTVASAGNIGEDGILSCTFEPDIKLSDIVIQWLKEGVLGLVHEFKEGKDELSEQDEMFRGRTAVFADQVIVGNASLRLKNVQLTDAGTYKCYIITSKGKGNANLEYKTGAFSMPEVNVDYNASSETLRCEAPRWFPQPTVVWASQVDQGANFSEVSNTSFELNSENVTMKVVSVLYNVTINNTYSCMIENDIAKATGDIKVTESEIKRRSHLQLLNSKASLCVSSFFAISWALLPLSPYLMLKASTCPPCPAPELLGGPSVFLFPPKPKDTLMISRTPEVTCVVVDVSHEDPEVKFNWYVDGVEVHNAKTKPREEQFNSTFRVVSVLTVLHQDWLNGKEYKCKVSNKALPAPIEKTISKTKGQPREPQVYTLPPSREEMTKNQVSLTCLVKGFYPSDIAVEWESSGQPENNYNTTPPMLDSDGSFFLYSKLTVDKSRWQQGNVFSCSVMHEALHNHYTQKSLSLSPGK
ASSAY COMMENT: competition ELISA; row = unlabeled blocking MAb; competitor = biotinylated detecting MAb A87.1
ASSAY READOUT: signal/noise ratio
When you answer, write just the number.

Worked cases, signal/noise ratio given:
BINDER	signal/noise ratio
Ovr110.Q12 (antibody, IgG1, V domains shown, Mouse hybridoma MAb; also called Q12.2; Ovr110.Q12.2) VH: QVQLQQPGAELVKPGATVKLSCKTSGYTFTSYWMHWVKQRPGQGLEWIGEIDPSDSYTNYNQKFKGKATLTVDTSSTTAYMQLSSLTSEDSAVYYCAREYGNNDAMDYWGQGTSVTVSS VL: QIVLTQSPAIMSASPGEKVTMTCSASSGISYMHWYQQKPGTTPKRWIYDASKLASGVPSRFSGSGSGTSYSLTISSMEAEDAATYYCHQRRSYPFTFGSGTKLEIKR	6.7
Ovr110.Q19 (antibody, IgG1, V domains shown, Mouse hybridoma MAb; also called Q19.6; Ovr110.Q19.6) VH: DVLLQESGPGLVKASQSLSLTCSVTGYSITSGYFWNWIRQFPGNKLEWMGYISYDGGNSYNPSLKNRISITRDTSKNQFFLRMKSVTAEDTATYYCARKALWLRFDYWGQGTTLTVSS VL: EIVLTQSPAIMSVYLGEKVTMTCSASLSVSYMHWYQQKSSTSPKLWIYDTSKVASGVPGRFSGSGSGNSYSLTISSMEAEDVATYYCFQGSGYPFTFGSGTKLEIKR	6.6
Ovr110.Q27 (antibody, IgG1, V domains shown, Mouse hybridoma MAb; also called Q27.4; Q27.2) VH: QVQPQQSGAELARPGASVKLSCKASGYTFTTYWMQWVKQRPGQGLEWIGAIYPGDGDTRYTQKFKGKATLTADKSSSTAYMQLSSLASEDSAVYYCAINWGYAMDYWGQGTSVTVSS VL: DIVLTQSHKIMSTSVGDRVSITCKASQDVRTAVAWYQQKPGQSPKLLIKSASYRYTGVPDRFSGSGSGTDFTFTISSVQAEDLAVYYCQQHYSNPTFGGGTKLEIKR	6.7
Ovr110.Q11 (antibody, V domains shown, Mouse hybridoma MAb; also called Q11.12.3; Ovr110.Q11.12.3) VH: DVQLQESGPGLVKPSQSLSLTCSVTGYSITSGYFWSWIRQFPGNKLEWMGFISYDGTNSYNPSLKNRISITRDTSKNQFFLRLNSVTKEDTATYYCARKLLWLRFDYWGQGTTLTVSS VL: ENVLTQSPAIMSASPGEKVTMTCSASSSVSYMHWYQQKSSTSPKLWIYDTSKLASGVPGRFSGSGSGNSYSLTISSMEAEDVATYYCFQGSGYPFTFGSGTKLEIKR	6.4

input: Kindly indicate its recorded signal/noise ratio. Item: Ovr110.Q23 (antibody, IgG1, V domains shown, Mouse hybridoma MAb; also called Q23.6) VH: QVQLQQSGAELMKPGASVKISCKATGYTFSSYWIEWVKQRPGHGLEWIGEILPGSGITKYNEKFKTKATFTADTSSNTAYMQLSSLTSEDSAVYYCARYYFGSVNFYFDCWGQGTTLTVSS VL: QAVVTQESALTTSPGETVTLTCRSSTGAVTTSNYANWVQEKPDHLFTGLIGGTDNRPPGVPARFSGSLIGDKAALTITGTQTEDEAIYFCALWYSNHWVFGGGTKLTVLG
output: 6.7
